system: Salmonella enterica subsp. enterica serovar Typhi; assay: Zone of inhibition of Salmonella typhae at compound concentration of 40 mg/mL; type: functional
observable: Inhibition
Returns: string containing the numeric result and its unit.

# "COc1ccc(Cl)cc1C(=O)NCNc1ccc(S(=O)(=O)[N-]C(C)=O)cc1.[Na+]" with Salmonella enterica subsp. enterica serovar Typhi: Inhibition is 10.5 mm

Record "COc1ccc(Cl)cc1C(=O)NCN(c1ccccc1)c1ccccc1" has Salmonella enterica subsp. enterica serovar Typhi Inhibition equal to 7.5 mm

Item "COc1ccc(Cl)cc1C(=O)NCNc1ccc(S(=O)(=O)NN)cc1" was tested on Salmonella enterica subsp. enterica serovar Typhi; the reported Inhibition is 7 mm

Further cases:
Tested on Salmonella enterica subsp. enterica serovar Typhi, the item "COc1ccc(Cl)cc1C(=O)NCNc1ccc(S(=O)(=O)Nc2ncccn2)cc1" showed Inhibition equal to 7 mm

Measured Inhibition (Salmonella enterica subsp. enterica serovar Typhi), entry "Cc1cc(NS(=O)(=O)c2ccc(N)cc2)no1" : 8.5 mm

Readout Inhibition for Nc1ccc(S(N)(=O)=O)cc1 [SULFANILAMIDE] , test system Salmonella enterica subsp. enterica serovar Typhi, was 7 mm
